assay: Plasma midazolam pharmacokinetics after 2 mg oral doses on day 1 and day 16; settings: human, plasma, po, 2 mg, Cmax, Group B (midazolam alone), day 1; 2 mg oral; mean (SD); N = 8
Measured Endpoint: Cmax (ng/mL)

{"Compound String": "Cc1ncc2n1-c1ccc(Cl)cc1C(c1ccccc1F)=NC2", "Measured Endpoint": "Cmax", "Recorded Result": 11.3}

###

experiment: Plasma midazolam pharmacokinetics after 2 mg oral doses on day 1 and day 16; details: human, plasma, po, 2 mg, AUCinf, Group B (midazolam alone), day 1; 2 mg oral; mean (SD); N = 8

{"Compound String": "Cc1ncc2n1-c1ccc(Cl)cc1C(c1ccccc1F)=NC2", "AUC(0-inf) (ng·h/mL)": 31}

###

test: Plasma midazolam pharmacokinetics after 2 mg oral doses on day 1 and day 16; settings: human, plasma, po, 2 mg, t1/2, Group B (midazolam alone), day 16; 2 mg oral; mean (SD); N = 8
Measured Endpoint: half-life

{"Compound String": "Cc1ncc2n1-c1ccc(Cl)cc1C(c1ccccc1F)=NC2", "Measured Endpoint": "half-life", "Recorded Result": "6.22 h"}

###

experiment: Plasma midazolam pharmacokinetics after 2 mg oral doses on day 1 and day 16; details: human, plasma, po, 2 mg, t1/2, Group B (midazolam alone), day 1; 2 mg oral; mean (SD); N = 8
Measured Endpoint: half-life

{"Compound": "Cc1ncc2n1-c1ccc(Cl)cc1C(c1ccccc1F)=NC2 [midazolam]", "Recorded Result": "6.2 h"}

###

assay: Plasma midazolam pharmacokinetics after 2 mg oral doses on day 1 and day 16; conditions: human, plasma, po, 2 mg

{"Compound": "Cc1ncc2n1-c1ccc(Cl)cc1C(c1ccccc1F)=NC2 [midazolam]", "AUC(0-t) (ng·h/mL)": 30.4}

###

assay: Plasma midazolam pharmacokinetics after 2 mg oral doses on day 1 and day 16; details: human, plasma, oral
Measured Endpoint: AUC(0-t) (ng·h/mL)

{"Molecule": "Cc1ncc2n1-c1ccc(Cl)cc1C(c1ccccc1F)=NC2 [midazolam]", "Recorded Result": 31}

###

assay: Plasma midazolam pharmacokinetics after 2 mg oral doses on day 1 and day 16; conditions: human, plasma, po, 2 mg, Cmax, Group B (midazolam alone), day 16; 2 mg oral; mean (SD); N = 8
Measured Endpoint: Cmax (ng/mL)

{"Compound String": "Cc1ncc2n1-c1ccc(Cl)cc1C(c1ccccc1F)=NC2", "Recorded Result": 10.9}

Cited source for all entries: paper PMC4184705
